Record form. Attribute: pIC50. Fill in for each entry.
- Assay info: Inhibition of influenza A virus RNA-dependent RNA polymerase subunit PA endonuclease activity
Give a plain numeric answer without units written out.

q: Quick one: pIC50 for Cc1cc(C(=O)Nc2ccc3c(c2)N(O)C(=O)/C3=C(\O)c2ccccc2)no1 ?
a: 5.02

q: I have this compound here, O=C(Nc1ccc2c(c1)N(O)C(=O)/C2=C(\O)c1ccccc1)c1cnc2ccccc2n1 , and I need its recorded pIC50.
a: 4.77

q: Recorded pIC50 of CCC(=O)c1c(O)n(O)c2cc(NC(=O)Nc3ccc(Cl)cc3)ccc12 , please.
a: 4.42

q: Reported pIC50, compound CC/C(O)=C1/C(=O)N(O)c2cc(NC(=O)c3cccs3)ccc21 : ____
a: 4.46

q: pIC50 lookup needed for O=C(Nc1ccc2c(c1)N(O)C(=O)/C2=C(\O)c1ccccc1)c1ccccc1 , thanks.
a: 5

---

- Assay info: Inhibition of influenza A virus RNA-dependent RNA polymerase subunit PA endonuclease activity
Give pIC50 for every item shown.
# output: bare number, no unit

q: Fill in the blank: the reported pIC50 of O=C1C(Cc2ccc(F)cc2)=N/C(=C\c2ccccc2)C(=O)N1O is ____.
a: 5.19

q: # get_value(readout='pIC50', item= CC(C)CC1=N/C(=C\c2ccc(F)cc2)C(=O)N(O)C1=O )
a: 6.05

q: Which value of pIC50 has been reported for O=C(Nc1ccc2c(c1)N(O)C(=O)/C2=C(\O)c1ccccc1)c1ccc2ccccc2c1 in the records?
a: 5.1

q: Given O=C(O)/C(O)=C/C(=O)C1(Cc2ccc(Cl)cc2)CCCN(Cc2ccccc2)C1 (stereo not given) , state its recorded pIC50.
a: 5.96

q: Which pIC50 is reported for this molecule? CC/C(O)=C1/C(=O)N(O)c2cc(NC(=O)/C=C/c3ccccc3Cl)ccc21
a: 5.1

---

- Assay info: Inhibition of influenza A virus RNA-dependent RNA polymerase subunit PA endonuclease activity
pIC50 of 5 or higher: MET. Under 5: NOT MET.

q: Textbook exercise: given the entry O=C1C(Cc2ccccc2)=N/C(=C\c2ccc(F)cc2)C(=O)N1O , state whether its pIC50 is greater than or equal to 5.
a: MET

q: Confirm if pIC50 reported for the compound O=C(Nc1ccccc1)Nc1ccc2c(C(=O)c3ccccc3)c(O)n(O)c2c1 is 5 or above.
a: NOT MET

q: Could you tell me if the measured pIC50 of OC(CN1CCCCC1)Cn1c2c(c3ccccc31)CCCC2 (stereo unspecified) reaches 5 or more?
a: NOT MET

q: Identify whether the reported pIC50 of the following compound is 5 or greater: COc1ccc(/C=C2\N=C(Cc3ccccc3)C(=O)N(O)C2=O)cc1
a: MET

q: Given C/C(O)=C1/C(=O)N(O)c2cc(NC(=O)c3cccs3)ccc21 , state whether its pIC50 is at least 5.
a: NOT MET

---

- Assay info: Inhibition of influenza A virus RNA-dependent RNA polymerase subunit PA endonuclease activity
For each entry below, report its pIC50 value.
// print number alone

q: What does the data say about its pIC50? Entry: CC(=O)c1c(O)n(O)c2cc(NC(=O)Nc3cccc(C(=O)O)c3)ccc12
a: 4.85

q: # pIC50 lookup, item O=C(O)/C(O)=C/C(=O)C1(Cc2ccc(Cl)cc2)CCN(Cc2ccc(Cl)cc2)CC1
a: 6.27

q: Query: pIC50; subject: CC(=O)c1c(O)n(O)c2cc(NC(=O)c3ccc4ccccc4c3)ccc12
a: 5.05

q: What does the record list as pIC50 for O=C1/C(=C(\O)c2ccccc2)c2ccc(NS(=O)(=O)c3cccs3)cc2N1O ?
a: 4.32

q: // returns reported pIC50 for input C/C(O)=C1/C(=O)N(O)c2cc(NC(=O)/C=C/c3ccccc3Cl)ccc21
a: 4.59

q: Look up pIC50: CC(C)/C=C1\N=C(CC(C)C)C(=O)N(O)C1=O
a: 5.26

q: Which value of pIC50 has been reported for CCC(=O)c1c(O)n(O)c2cc(NC(=O)Nc3ccccc3Cl)ccc12 in the records?
a: 4.3

q: What value of measured pIC50 is listed for CC(C)CC1=N/C(=C\c2ccccc2)C(=O)N(O)C1=O ?
a: 5.32

q: I am curious: what pIC50 value has been reported for COc1ccc(/C=C2\N=C(CC(C)C)C(=O)N(O)C2=O)cc1 ?
a: 6.1

q: For the molecule shown here, O=C(Nc1ccc2c(C(=O)c3ccccc3)c(O)n(O)c2c1)NC1CCCCC1 , give the reported pIC50.
a: 4.3

q: Looking for the measured pIC50 of CC/C(O)=C1/C(=O)N(O)c2cc(NC(=O)Nc3ccccc3)ccc21 , can you help?
a: 4.4
